These data points were gathered from ChEMBL document CHEMBL1133485.

Give Ki for every item shown.
- measured_target: Norepinephrine transporter (Rattus norvegicus, UniProt Q9WTR4)
- Sequence (Q9WTR4 whole entry): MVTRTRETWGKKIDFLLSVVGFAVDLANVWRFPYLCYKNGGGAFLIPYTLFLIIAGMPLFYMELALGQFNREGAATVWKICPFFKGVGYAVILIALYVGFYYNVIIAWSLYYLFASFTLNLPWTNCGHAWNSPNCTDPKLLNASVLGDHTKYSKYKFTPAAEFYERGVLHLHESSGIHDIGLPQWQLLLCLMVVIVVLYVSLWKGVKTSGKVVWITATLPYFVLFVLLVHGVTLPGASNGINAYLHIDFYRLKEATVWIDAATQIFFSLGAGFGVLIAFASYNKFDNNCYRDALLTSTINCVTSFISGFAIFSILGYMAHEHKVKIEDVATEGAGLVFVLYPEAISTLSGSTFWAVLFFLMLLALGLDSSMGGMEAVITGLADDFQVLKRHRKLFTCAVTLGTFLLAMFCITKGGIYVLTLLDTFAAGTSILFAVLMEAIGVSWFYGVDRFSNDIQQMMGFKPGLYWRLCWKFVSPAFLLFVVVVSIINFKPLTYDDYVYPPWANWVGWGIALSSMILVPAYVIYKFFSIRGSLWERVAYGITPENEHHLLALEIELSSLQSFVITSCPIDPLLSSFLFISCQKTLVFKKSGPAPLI
Give just the numeric value; nM need not be written.

Input: # get_value(readout='Ki', item= COC(=O)C1C2CCC(CC1c1ccc(Cl)cc1)N2 (stereo in doubt; 4b) )
Output: 3.1

Input: Would you kindly repeat that for COC(=O)[C@H]1[C@@H](c2ccc(F)cc2)C[C@H]2CC[C@H]1N2C (stereo in doubt; 5a) ?
Output: 741

Input: Likewise for COC(=O)C1C2CCC(CC1c1ccc(F)cc1)N2 (stereo in doubt; 7a) ?
Output: 11.3

Input: Next compound up: COC(=O)C1C(c2ccc(C)cc2)CC2CCC1N2C (stereo in doubt; 6c)
Output: 36

Input: Same read-out for COC(=O)C1C(c2ccc(C)cc2)CC2CCC1N2C (stereo in doubt; 5c) ?
Output: 160

Input: Also COC(=O)C1C2CCC(CC1c1ccc(Cl)cc1)N2 (stereo in doubt; 7b) , if possible.
Output: 3.28

Input: And what about the compound COC(=O)[C@H]1[C@@H](c2ccc(F)cc2)C[C@H]2CC[C@H]1N2C (stereo in doubt; 6a) ?
Output: 503

Input: What do we get for COC(=O)C1C2CCC(CC1c1ccc(C)cc1)N2 (stereo in doubt; 7c) ?
Output: 4.4

Input: Next compound: COC(=O)C1C2CCC(CC1c1ccc(C)cc1)N2 (stereo in doubt; 4c)
Output: 5.2

Input: Now give it for COC(=O)C1C2CCC(CC1c1ccc(F)cc1)N2 (stereo in doubt; 4a) too.
Output: 5.9

---

Kindly supply the reported IC50 values for the records listed here.
- measured_target: Norepinephrine transporter (Rattus norvegicus)
Note: unit nM is implicit; provide only the numeric part.

Input: Bench note: what IC50 did COC(=O)C1C(c2ccc(C)cc2)CC2CCC1N2C (stereo in doubt; 5c) show?
Output: 270

Input: What about this compound? COC(=O)C1C2CCC(CC1c1ccc(F)cc1)N2 (stereo in doubt; 7a)
Output: 18.8

Input: COC(=O)C1C2CCC(CC1c1ccc(C)cc1)N2 (stereo in doubt; 7c) ?
Output: 7.2

Input: Item: COC(=O)C1C2CCC(CC1c1ccc(Cl)cc1)N2 (stereo in doubt; 7b)
Output: 5.45

Input: Would you mind doing COC(=O)C1C2CCC(CC1c1ccc(C)cc1)N2 (stereo in doubt; 4c) as well?
Output: 9

Input: Subsequent entry: COC(=O)C1C2CCC(CC1c1ccc(Cl)cc1)N2 (stereo in doubt; 4b)
Output: 5.14

Input: Check COC(=O)C1C2CCC(CC1c1ccc(F)cc1)N2 (stereo in doubt; 4a) too.
Output: 9.8

---

- measured_target: Sodium-dependent serotonin transporter (Rattus norvegicus, UniProt P31652)
- Sequence (P31652 whole entry): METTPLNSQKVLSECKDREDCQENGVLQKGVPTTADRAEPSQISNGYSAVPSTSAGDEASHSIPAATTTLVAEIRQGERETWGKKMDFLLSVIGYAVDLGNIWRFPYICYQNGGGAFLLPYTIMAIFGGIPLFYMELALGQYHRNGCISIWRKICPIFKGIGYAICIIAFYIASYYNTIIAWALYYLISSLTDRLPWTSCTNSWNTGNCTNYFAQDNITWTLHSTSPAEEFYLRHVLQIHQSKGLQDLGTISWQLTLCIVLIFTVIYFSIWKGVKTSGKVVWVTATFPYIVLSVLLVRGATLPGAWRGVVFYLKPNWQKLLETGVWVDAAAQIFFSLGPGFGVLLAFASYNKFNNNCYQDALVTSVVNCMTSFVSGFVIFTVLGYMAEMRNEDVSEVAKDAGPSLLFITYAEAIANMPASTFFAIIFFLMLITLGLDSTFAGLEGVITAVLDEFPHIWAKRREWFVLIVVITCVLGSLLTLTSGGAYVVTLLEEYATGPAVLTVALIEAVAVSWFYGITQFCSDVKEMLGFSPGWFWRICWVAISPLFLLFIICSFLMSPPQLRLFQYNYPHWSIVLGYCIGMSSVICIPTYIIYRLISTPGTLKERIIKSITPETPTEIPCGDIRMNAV
endpoint_label: IC50 (nM)
Provide the reading as a plain figure in nM.

Input: Report IC50 for COC(=O)C1C2CCC(CC1c1ccc(Cl)cc1)N2 (stereo in doubt; 4b) please.
Output: 53

Input: Next entry: COC(=O)C1C2CCC(CC1c1ccc(F)cc1)N2 (stereo in doubt; 4a)
Output: 92.4

Input: And then COC(=O)C1C2CCC(CC1c1ccc(C)cc1)N2 (stereo in doubt; 7c) , what is it?
Output: 135

Input: Do the same for COC(=O)C1C2CCC(CC1c1ccc(C)cc1)N2 (stereo in doubt; 4c) please
Output: 500

---

List of pKi tested on Sodium-dependent serotonin transporter (Rattus norvegicus, UniProt P31652).
Recall that pKi is obtained by taking minus log10 of the concentration measured in molar.

Input: Query pKi on Sodium-dependent serotonin transporter (Rattus norvegicus, UniProt P31652) for COC(=O)C1C2CCC(CC1c1ccc(Cl)cc1)N2 (stereo in doubt; 7b)
Output: 9.42

Input: Moving on to COC(=O)C1C(c2ccc(Cl)cc2)CC2CCC1N2C (stereo in doubt; 5b)
Output: 7.04

Input: Thanks! And COC(=O)C1C2CCC(CC1c1ccc(C)cc1)N2 (stereo in doubt; 4c) ?
Output: 7.34

Input: Query COC(=O)C1C2CCC(CC1c1ccc(C)cc1)N2 (stereo in doubt; 7c) next
Output: 7.92

Input: Next record, please: COC(=O)[C@H]1[C@@H](c2ccc(F)cc2)C[C@H]2CC[C@H]1N2C (stereo in doubt; 6a)
Output: 7.16

Input: Note, next up: COC(=O)C1C2CCC(CC1c1ccc(F)cc1)N2 (stereo in doubt; 7a)
Output: 8.20

Input: Input COC(=O)[C@H]1[C@@H](c2ccc(F)cc2)C[C@H]2CC[C@H]1N2C (stereo in doubt; 5a)
Output: 6.34

Input: Same lookup for COC(=O)C1C(c2ccc(Cl)cc2)CC2CCC1N2C (stereo in doubt; 6b) , please.
Output: 8.40

Input: Also COC(=O)C1C2CCC(CC1c1ccc(Cl)cc1)N2 (stereo in doubt; 4b) ?
Output: 8.32

Input: Input COC(=O)C1C2CCC(CC1c1ccc(F)cc1)N2 (stereo in doubt; 4a)
Output: 8.08

---

- measured_target: Sodium-dependent dopamine transporter (Rattus norvegicus, UniProt P23977)
- Sequence (P23977 whole entry): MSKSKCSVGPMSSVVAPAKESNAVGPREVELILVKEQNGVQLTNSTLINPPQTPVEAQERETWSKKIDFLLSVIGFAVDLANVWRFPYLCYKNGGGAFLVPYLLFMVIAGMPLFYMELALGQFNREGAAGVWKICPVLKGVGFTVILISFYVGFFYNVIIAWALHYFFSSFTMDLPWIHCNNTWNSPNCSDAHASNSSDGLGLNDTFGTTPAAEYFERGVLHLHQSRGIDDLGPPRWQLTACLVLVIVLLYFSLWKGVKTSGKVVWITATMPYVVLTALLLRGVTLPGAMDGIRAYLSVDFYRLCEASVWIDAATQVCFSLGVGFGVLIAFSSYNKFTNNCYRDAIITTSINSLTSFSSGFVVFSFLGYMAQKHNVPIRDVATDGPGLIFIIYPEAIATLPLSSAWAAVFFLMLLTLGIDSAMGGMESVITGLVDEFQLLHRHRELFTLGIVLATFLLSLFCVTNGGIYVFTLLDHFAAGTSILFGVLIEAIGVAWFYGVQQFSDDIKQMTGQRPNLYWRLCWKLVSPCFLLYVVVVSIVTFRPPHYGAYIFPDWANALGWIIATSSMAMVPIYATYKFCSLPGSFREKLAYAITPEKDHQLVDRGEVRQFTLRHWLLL
endpoint_label: IC50 (nM)
Number in nM, nothing else.

Input: Would you mind telling me what IC50 value was observed for COC(=O)C1C2CCC(CC1c1ccc(C)cc1)N2 (stereo in doubt; 4c) ?
Output: 33.6

Input: Can you check COC(=O)C1C2CCC(CC1c1ccc(C)cc1)N2 (stereo in doubt; 7c) next?
Output: 0.84

Input: Would you mind doing COC(=O)C1C2CCC(CC1c1ccc(Cl)cc1)N2 (stereo in doubt; 4b) as well?
Output: 3.1

Input: Likewise for COC(=O)C1C2CCC(CC1c1ccc(F)cc1)N2 (stereo in doubt; 4a) ?
Output: 32.6

Input: Note, next up: COC(=O)C1C2CCC(CC1c1ccc(F)cc1)N2 (stereo in doubt; 7a)
Output: 4.4
